Target: T1, Sym-1706 (RSV G central conserved domain (CCD) peptide, type A 145-184) (Respiratory syncytial virus type A, N-terminal biotin)
T1 construct: Synthetic peptide, C-terminally truncated against Sym-1705
T1 peptide: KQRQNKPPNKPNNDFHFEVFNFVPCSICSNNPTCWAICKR
Assay: ELISA, biotinylated peptide on avidin plate
parameter: binding result

- binder: "CB065.1 (antibody, V domains shown, Tested as human IgG from the pCP9-kappa vector) VH: QVQLVESGGGVVQPGRSLRLSCAASGFTFSNYGMHWVRQAPGKGLEWVTIISYDESTTLYADSVKGRFTISRDNSKNTVYLQMNSLRPEDTAVYYCARDHFDPSGYFWYFDLWGRGTLVTVSS VL: DIVMTQSPLSLSVTPGQPASISCKSSQSLLQRDGKTYLYWYLQKPGQSPQLLIYEVSSRFSGVPDRFSGSGSGTDFTLKISRVEAEDVGVYYCMQGIRLPRTFGQGTKVEIK"
  parameter: "binding result"
  reported value: "binds"
- binder: "CB028.1 (antibody, V domains shown, Tested as human IgG from the pCP9-kappa vector) VH: QVQLVQSGAEVKKPGASVQVSCKTSGYTFSSYGISWVRQAPGQGPEWMGWISTHIGTTNYAQKLQGRVTMTTDTSTTTAYMELRSLRSDDTAVYYCARDLAKWYCSGDTCFCSGGRCYSDHWGQGTLVTVSS VL: DIQMTQSPSSLSASVGDRVTITCRASQSINDCLNWYQQKPGQAPKLLISAASNLQSGVPSRFSGSGSETDFTLTISSLQPEDFAAYYCQQSFSTPLTFGGGTKVEIK"
  parameter: "binding result"
  reported value: "binds"
